system: MRSA ATCC BAA-1556; experiment: MIC against methicillin resistant Staphylococcus aureus (MRSA); details: read-out: MRSA MIC, ATCC BAA-1556

- chemical-smiles: "CN(C)CCCn1nnc(-c2ccc(-c3ccc(N4C[C@H](CN)OC4=O)cc3F)cn2)n1"
  MIC: "> 50 µg/mL"
- chemical-smiles: "CN(C)CCn1nnc(-c2ccc(-c3ccc(N4C[C@H](CO)OC4=O)cc3F)cn2)n1"
  MIC: "1.85 µg/mL"
- chemical-smiles: "CCN(CC)CCn1nnc(-c2ccc(-c3ccc(N4C[C@H](CNC(C)=O)OC4=O)cc3F)cn2)n1"
  MIC: "1.85 µg/mL"
- chemical-smiles: "Cl.Cn1nnc(-c2ccc(-c3ccc(N4C[C@H](CN)OC4=O)cc3F)cn2)n1"
  MIC: "50 µg/mL"
- chemical-smiles: "Cl.NCCn1nnnc1-c1ccc(-c2ccc(N3C[C@H](CO)OC3=O)cc2F)cn1"
  MIC: "1.85 to 5.55 µg/mL"
- chemical-smiles: "CN(C)CCn1nnc(-c2ccc(-c3ccc(N4C[C@H](CN)OC4=O)cc3F)cn2)n1.Cl"
  MIC: "> 50 µg/mL"
